Record form. Attribute: Tm. Fill in for each entry.
Test: melting temperature; melt of duplexes
Conditions: sodium 0.0675 M; strand 1 µM
One number for each entry, in °C.

Some substances with known Tm results, for comparison:
Substance	Display Unit	Tm
CGACGTGCGTTATGTGCTG+CAGCACATGGCGCACGTCG (((((((((..((((((((+))))))))..)))))))))	°C	57.5
CGACGTGCCGTATGTGCTG+CAGCACATTCAGCACGTCG ((((((((.(.((((((((+)))))))).).))))))))	°C	50.1
CGACGTGCCCTATGTGCTG+CAGCACATCACGCACGTCG ((((((((...((((((((+))))))))...))))))))	°C	46.4

Now take the following substance into account.
Name the recorded Tm for CGACGTGCAATATGTGCTG+CAGCACATTTCGCACGTCG ((((((((.(.((((((((+)))))))).).)))))))) . 50.1

The values you see were collected from the array DNA melting data of Ke et al..
